# credit: PubChem BioAssay (NCI)

The following compounds are listed with their measured growth inhibition values.
assay: NCI Yeast Anticancer Drug Screen. Data for the sgs1 mgt1 strain (AID 161);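 further: 0% = growth of cultures given vehicle only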; conditions: S. cerevisiae sgs1 mgt1 strain, at 50.0 µM, stronger effect = higher value
About 79,000 compounds went through this panel and 15% of them were active in at least one assay; those are over-represented in the sample as a whole.
experimental.readout: growth inhibition (%)

[[record]]
compound = "CC1C2Cc3ccc(O)cc3C1(C)CCN2C (stereo not given)"
readout_unit = "%"
measured = 30.6

[[record]]
compound = "Nc1nc(N)n2c(N)nnc2n1"
readout_unit = "%"
measured = -0.25

[[record]]
compound = "CCN1CC2(CO)CCC(OC)C34C5CC6C(OC)CC(O)(C5C6OC)C(O)(C(OC)C23)C14 (stereo not given)"
readout_unit = "%"
measured = 2.7

[[record]]
compound = "CC1(CCl)COP(=O)(NN)OC1 (stereo not given)"
readout_unit = "%"
measured = -3.85

[[record]]
compound = "COc1ccc([As](O[As](c2ccc(OC)cc2)c2ccc(OC)cc2)c2ccc(OC)cc2)cc1"
readout_unit = "%"
measured = 99.5

